Ref: patent US9751845B2

# pIC50 per record follows
- MEASURED_TARGET: 5-HT2B Receptors (Homo sapiens, UniProt P41595)
- Construct: expressed in transfected cells
- Sequence (P41595 whole entry): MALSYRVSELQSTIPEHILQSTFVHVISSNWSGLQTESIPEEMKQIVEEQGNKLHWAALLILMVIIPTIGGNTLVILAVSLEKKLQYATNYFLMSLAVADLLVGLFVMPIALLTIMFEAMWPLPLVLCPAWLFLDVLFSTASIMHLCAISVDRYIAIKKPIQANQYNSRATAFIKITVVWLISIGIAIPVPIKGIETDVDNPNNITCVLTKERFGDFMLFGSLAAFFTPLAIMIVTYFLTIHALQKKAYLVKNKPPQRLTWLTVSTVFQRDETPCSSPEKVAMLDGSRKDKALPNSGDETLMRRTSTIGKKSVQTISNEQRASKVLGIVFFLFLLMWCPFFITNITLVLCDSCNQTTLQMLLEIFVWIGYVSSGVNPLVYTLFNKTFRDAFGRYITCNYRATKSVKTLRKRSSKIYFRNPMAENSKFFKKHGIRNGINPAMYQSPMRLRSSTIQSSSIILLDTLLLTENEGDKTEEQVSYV
- PROCEDURE_DETAILS: Antagonist activity assay (FLIPR, CHO-K1/5-HT2B stable cell line)
- Assay type: cell-based
- CONDITION_PARAMETERS: CHO-K1/5-HT2B cells, antagonist mode vs EC80 5-HT
// pIC50 here means minus log10 of the molar concentration (mol/L)

Below: 6 compounds and their reported pIC50.
COMPOUND	VAL
CC1(C)N=C(N)N=C(Nc2cccc(Br)c2)N1 [1-c]	6.48
CC1(C)N=C(N)N=C(Nc2ccc(Cl)cc2)N1 [1-d]	5.79
NC1=NC2(CCCCC2)NC(Nc2cccc(Br)c2)=N1 [3-e2]	7.48
NC1=NC2(CCCCC2)NC(Nc2ccc(Cl)cc2)=N1 [3-n]	6.27
CC1(C)N=C(N)N=C(Nc2ccc(I)cc2)N1 [1-f]	5.60
CCOC(=O)c1cccc(NC2=NC(NC)=NC3(CCCCC3)N2)c1 [3-x]	7.31

Please turn your attention to the following entry.
Exercise: Report pIC50 for COc1cccc(NC2=NC(N)=NC3(CCCC3)N2)c1 [2-a] please.
Key: 5.98
